Catalogue of Kd values
# Tested Target: T1, PUF4 RNA-binding domain (Saccharomyces cerevisiae, UniProt P25339 537-888)
# T1 sequence: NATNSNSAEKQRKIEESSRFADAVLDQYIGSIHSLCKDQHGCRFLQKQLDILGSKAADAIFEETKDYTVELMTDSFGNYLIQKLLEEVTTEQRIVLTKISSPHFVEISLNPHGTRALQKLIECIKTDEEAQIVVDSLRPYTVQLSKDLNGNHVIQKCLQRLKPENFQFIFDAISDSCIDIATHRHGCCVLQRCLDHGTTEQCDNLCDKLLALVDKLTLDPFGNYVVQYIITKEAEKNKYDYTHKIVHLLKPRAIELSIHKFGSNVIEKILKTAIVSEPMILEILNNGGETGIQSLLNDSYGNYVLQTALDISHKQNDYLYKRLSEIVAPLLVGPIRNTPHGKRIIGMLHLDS
# Method Description: Mg; RNA-MaP; 20 mM Na-HEPES pH 7.4, 30 mM KOAc, 0.75 mM MgCl2, 0.1% Tween-20, 5% glycerol, 0.1 mg/mL BSA, 2 mM DTT; 25 C; 0.0125-409.6 nM protein
# Test Settings: tags: N-His6-TEV cleaved; C-SNAP kept, Cy3B-labelled; label: tethered on chip by stalled RNA polymerase
Endpoint Name: Kd (nM)

binder="Id_ii_S2_P4E.2_K4.1_C4.2_[C-2A]_[T-1A]_H4.1_A4.1_F4.1_T4.2_[G10A]_[T11A] (ssRNA) RNA: UUUGAUUAAUAUGAUAUCGUUCUUUCUAAUGUAUAUUAAAUUCUUUCUCGAUAUCAUAUUAAUCUUU" value_qualifier== endpoint_result=3.89
binder="Ic_S2_P4E.1_K4.1_C4.1_H4.1_A4.1_[T5C]_[A6C]_F4.1_[T8C]_[A9C]_T4.1 (ssRNA) RNA: UUUGAUUAAUAUGAUAUCGUUCUUUCUUGUACCUCCUUCUUUCUCGAUAUCAUAUUAAUCUUU" value_qualifier== endpoint_result=79.4
binder="ACAAACUGGACUAUUAACAAAC (ssRNA) [Ib_S3_P5E.1_K5.1_C5.1_H5.1_[T3G]_A5.1_[T5C]_F5.1_T5.1]" value_qualifier=> endpoint_result=2300
binder="Id_ii_S4_P3E.4_K3.3_C3.2_[C-2A]_H3.3_A3.1_F3.1_T3.2_[A10T] (ssRNA) RNA: UUUGACAACUGAUCGUUCUUUCUAUACACUAUAUUUUCUUUCUCGAUCAGUUGUCUUU" value_qualifier== endpoint_result=49.3
binder="Id_ii_S2_P4E.2_K4.1_C4.2_[C-2T]_H4.1_A4.1_F4.1_T4.2_[G10C]_[T11C] (ssRNA) RNA: UUUGAUUAAUAUGAUAUCGUUCUUUCUUUUGUAUAUUACCUUCUUUCUCGAUAUCAUAUUAAUCUUU" value_qualifier== endpoint_result=0.557
binder="UCUCUUUGUAGCAUUGUCUCUU (ssRNA) [Ic_S1_P5E.1_K5.1_C5.1_H5.1_A5.1_[T5G]_[T6C]_F5.1_[A10G]_T5.1]" value_qualifier== endpoint_result=771
binder="UCUCUUUGUACAUUAAUCUCUU (ssRNA) [Ic_S1_P5E.1_K5.1_C5.1_H5.1_A5.1_[T5C]_[T6A]_[A7T]_F5.1_[T9A]_T5.1]" value_qualifier== endpoint_result=0.904
binder="Ic_S2_P4E.1_K4.1_C4.1_H4.1_A4.1_[A6T]_[T7C]_F4.1_[T8C]_[A9C]_T4.1 (ssRNA) RNA: UUUGAUUAAUAUGAUAUCGUUCUUUCUUGUAUUCCCUUCUUUCUCGAUAUCAUAUUAAUCUUU" value_qualifier== endpoint_result=162
binder="Id_iii_S4_P4E.8_K4.4_C4.3_H4.1_A4.2_F4.1_T4.2_[G10C] (ssRNA) RNA: UUUGACAACUGAUCGUUCUUUCUUCUUGUAUUUUACUUUCUUUCUCGAUCAGUUGUCUUU" value_qualifier== endpoint_result=1.79
binder="Ib_S2_P5E.1_K5.1_C5.1_H5.1_A5.1_[T5C]_F5.1_[T8C]_T5.1 (ssRNA) RNA: UUUGAUUAAUAUGAUAUCGUUCUUUCUUGUACUACUAUUCUUUCUCGAUAUCAUAUUAAUCUUU" value_qualifier== endpoint_result=2.86
binder="UCUCUUUGUUUAUUCUCUCUU (ssRNA) [Ib_S1_P4E.1_K4.1_C4.1_H4.1_[A4T]_A4.1_F4.1_[A9C]_T4.1]" value_qualifier== endpoint_result=804
binder="Ic_S2_P4E.1_K4.1_C4.1_H4.1_A4.1_[T5A]_[A6T]_[T7C]_F4.1_[T8A]_[A9T]_T4.1 (ssRNA) RNA: UUUGAUUAAUAUGAUAUCGUUCUUUCUUGUAAUCAUUUCUUUCUCGAUAUCAUAUUAAUCUUU" value_qualifier== endpoint_result=128
binder="UCUCUUGCACACUUAUUACCUCUCUU (ssRNA) [Id_ii_S1_P5E.4_K5.3_C5.2_[C-2G]_[T-1C]_H5.3_A5.1_F5.1_T5.2_[T11C]_[A12C]]" value_qualifier== endpoint_result=1320
binder="Id_ii_S4_P3E.2_K3.1_C3.2_[T-1C]_H3.1_A3.1_F3.1_T3.2_[T9C]_[A10C] (ssRNA) RNA: UUUGACAACUGAUCGUUCUUUCUCCUGUAUAUACCUUCUUUCUCGAUCAGUUGUCUUU" value_qualifier== endpoint_result=2.05
binder="UCUCUUCUUGUAUAUUAUGUCUCUU (ssRNA) [Id_ii_S1_P4E.2_K4.1_C4.2_H4.1_A4.1_F4.1_T4.2_[G10T]_[T11G]]" value_qualifier== endpoint_result=0.808
binder="Ie_S2_P4E.1_K4.1_C4.1_H4.1_A4.1_F4.1_[+8C]_T4.1 (ssRNA) RNA: UUUGAUUAAUAUGAUAUCGUUCUUUCUUGUAUAUUCAUUCUUUCUCGAUAUCAUAUUAAUCUUU" value_qualifier== endpoint_result=6.81
